Catalogue of LD50 readings, one per entry.
- ASSAY INFO: acute toxicity (LD50)
- ASSAY CONTEXT: in vivo, po; orally, mouse
Write it as a number; the unit mg/kg goes unstated.

1. O=C(c1cc2ccccc2o1)N1CCN(Cc2ccccc2)CC1 [Compound 1, N-Benzyl-coumarillic acid piperazide] ... 2050

Next molecule, LD50 to be filled in.
Could you please provide reported LD50 for O=C(c1cc2ccccc2o1)N1CCN(Cc2cccs2)CC1 [Compound 16, N-thenyl-coumarillic acid piperazide] ? Thanks!
1980

* * *

- Test system: coronary vessels
- ASSAY INFO: influence on coronary through-flow
- ASSAY CONTEXT: dose 10 (82 g)
Structures can show the parent of a compound that is named as a salt.
Catalogue of Coronary through-flow: Change (initial or only value) readings, one per entry.

Completed entries (count: 3):
1. CN(C)CCCN1c2ccccc2CCc2ccccc21 [Imipramine, hydrochloride, reference compound] ... +19%
2. O=C(C1Cc2ccccc2O1)N1CCN(Cc2ccccc2)CC1 (stereo not shown) [Compound 20] ... +25%
3. O=C(c1cc2ccccc2o1)N1CCCN(Cc2ccccc2)CC1 [Compound 17, N-benzyl-coumarillic acid homopiperazide] ... +8%

Could you please provide reported Coronary through-flow: Change (initial or only value) for O=C(c1cc2ccccc2[nH]1)N1CCN(Cc2ccccc2)CC1 [Compound 30] ? Thanks!
+90%
